Field pKi: reported value for Metabotropic glutamate receptor 2 (Homo sapiens, UniProt Q14416); entries drawn from several documents.
Scale explanation: pKi corresponds to minus log10 of a concentration expressed in moles per litre.

The measured pKi that `N[C@@]1(C(=O)O)CC[C@H]2[C@H](C(=O)O)[C@H]21` showed for Metabotropic glutamate receptor 2 (Homo sapiens, UniProt Q14416) is 7.89

The measured pKi that `Cc1ccc(SC[C@@H]2[C@@H](O)[C@H]3[C@H](C(=O)O)[C@H]3[C@]2(N)C(=O)O)cc1C` showed for Metabotropic glutamate receptor 2 (Homo sapiens, UniProt Q14416) is 7.85

The measured pKi that `CC(=O)N[C@H]1[C@H]2[C@H](C(=O)O)[C@H]2[C@](N)(C(=O)O)[C@@H]1CSc1ccc(F)c(C)c1` showed for Metabotropic glutamate receptor 2 (Homo sapiens, UniProt Q14416) is 8.04

The measured pKi that `Cc1cc(SC[C@@H]2[C@@H](N)[C@H]3[C@H](C(=O)O)[C@H]3[C@]2(N)C(=O)O)ccc1F` showed for Metabotropic glutamate receptor 2 (Homo sapiens, UniProt Q14416) is 7.62

The measured pKi that `N[C@]1(C(=O)O)[C@@H]2[C@@H](C(=O)O)[C@@H]2[C@H](O)[C@H]1CSc1cccc(F)c1` showed for Metabotropic glutamate receptor 2 (Homo sapiens, UniProt Q14416) is 7.36

The measured pKi that N[C@H](C(=O)O)C1[C@@H](C(=O)O)[C@@H]1C(=O)O (stereo partly specified) showed for Metabotropic glutamate receptor 2 (Homo sapiens, UniProt Q14416) is 6.96

The measured pKi that `Cc1cc(SC[C@@H]2[C@@H](Sc3nc[nH]n3)[C@H]3[C@H](C(=O)O)[C@H]3[C@]2(N)C(=O)O)ccc1F` showed for Metabotropic glutamate receptor 2 (Homo sapiens, UniProt Q14416) is 8.28

The measured pKi that `CC(C)SC[C@@H]1[C@@H](O)[C@H]2[C@H](C(=O)O)[C@H]2[C@]1(N)C(=O)O` showed for Metabotropic glutamate receptor 2 (Homo sapiens, UniProt Q14416) is 5.92

The measured pKi that `N[C@]1(C(=O)O)[C@@H]2[C@@H](C(=O)O)[C@@H]2[C@H](Sc2nc[nH]n2)[C@H]1OCc1ccc(Cl)c(Cl)c1` showed for Metabotropic glutamate receptor 2 (Homo sapiens, UniProt Q14416) is 8.13

The measured pKi that `N[C@@]1(C(=O)O)C[C@H](O)[C@H]2[C@H](C(=O)O)[C@H]21` showed for Metabotropic glutamate receptor 2 (Homo sapiens, UniProt Q14416) is 6.64

The measured pKi that `N[C@@]1(C(=O)O)C[C@@H](O)[C@H]2[C@H](C(=O)O)[C@H]21` showed for Metabotropic glutamate receptor 2 (Homo sapiens, UniProt Q14416) is 6.78
